Test: Cmax in non-perfused Sprague-Dawley rat brain at 30 mg/kg, iv
Assay type: ADME, organism-based
Set-up: dose 30 mg/kg, route intravenous
Endpoint Name: Cmax (ng/g)

a. CCC(CC)O[C@@H]1C=C(C(=O)O)C[C@H](N)[C@H]1NC(C)=O [OSELTAMIVIR CARBOXYLATE]
b. CCOC(=O)C1=C[C@@H](OC(CC)CC)[C@H](NC(C)=O)[C@@H](N)C1
Input line: // select label with min value of measured Cmax from [ a , b ] Output the label that corresponds to your choice.
Output line: b

---

Test: Terminal half life in perfused Sprague-Dawley rat plasma at 30 mg/kg, iv
Type: ADME, organism-based
Design: dose 30 mg/kg, route intravenous
Condition Label: read-out: beta t1/2 (converted)
Endpoint Name: half-life (h)

>>> experimental_value("CCOC(=O)C1=C[C@@H](OC(CC)CC)[C@H](NC(C)=O)[C@@H](N)C1")
1.59
>>> experimental_value("CCC(CC)O[C@@H]1C=C(C(=O)O)C[C@H](N)[C@H]1NC(C)=O [OSELTAMIVIR CARBOXYLATE]")
1.69

---

Test: Cmax ratio in brain to plasma in non-perfused Sprague-Dawley rat at 30 mg/kg, iv
Assay type: ADME, organism-based
Parameters: dose 30 mg/kg, route intravenous
Condition Label: brain and plasma
Endpoint Name: Kp
Write the number on its own, no unit after it.

Input line: Could you tell me which Kp is on file for CCC(CC)O[C@@H]1C=C(C(=O)O)C[C@H](N)[C@H]1NC(C)=O [OSELTAMIVIR CARBOXYLATE] ?
Output line: 0.02

---

Test: AUC (0 to infinity) ratio in brain to plasma in perfused Sprague-Dawley rat at 30 mg/kg, iv
Assay type: ADME, organism-based
Design: dose 30 mg/kg, route intravenous
Condition Label: brain and plasma, read-out: Ratio AUC
Endpoint Name: Kp
Write the number on its own, no unit after it.

Input line: Could you tell me which Kp is on file for CCOC(=O)C1=C[C@@H](OC(CC)CC)[C@H](NC(C)=O)[C@@H](N)C1 ?
Output line: 0.21

---

Test: Prodrug conversion in 42 days old female rat brain S9 fractions assessed as oseltamivir carboxylate generation rate assessed per mg of protein per min
Type: ADME, tissue-based
Endpoint Name: Activity (pmol/min/mg)
Give a bare numeral; the unit pmol/min/mg is implied.

Input line: Could you tell me which Activity is on file for CCOC(=O)C1=C[C@@H](OC(CC)CC)[C@H](NC(C)=O)[C@@H](N)C1 ?
Output line: 0.6

---

Test system: Brain
Test: Ratio of AUC (0 to infinity) after iv dose to AUC (0 to 8 hrs) after po dose in perfused Sprague-Dawley rat brain at 1000 mg/kg
Format: ADME, organism-based
Parameters: dose 1000 mg/kg, route oral
Condition Label: in vivo
Endpoint Name: AUC (ng·h/g)
Give a bare numeral; the unit ng·h/g is implied.

Input line: Could you tell me which AUC is on file for CCOC(=O)C1=C[C@@H](OC(CC)CC)[C@H](NC(C)=O)[C@@H](N)C1 ?
Output line: 13600

---

Test: Volume of distribution at steady state in Sprague-Dawley rat at 30 mg/kg, iv
Format: ADME, organism-based
Parameters: dose 30 mg/kg, route intravenous
Condition Label: in vivo, read-out: Vdss
Endpoint Name: Vd (L/kg)
Give a bare numeral; the unit L/kg is implied.

Input line: Could you tell me which Vd is on file for CCOC(=O)C1=C[C@@H](OC(CC)CC)[C@H](NC(C)=O)[C@@H](N)C1 ?
Output line: 3

---

Test: Terminal half life in non-perfused Sprague-Dawley rat brain at 30 mg/kg, iv
Assay type: ADME, organism-based
Parameters: dose 30 mg/kg, route intravenous
Condition Label: read-out: beta t1/2 (converted)
Endpoint Name: half-life (h)

1. CCC(CC)O[C@@H]1C=C(C(=O)O)C[C@H](N)[C@H]1NC(C)=O [OSELTAMIVIR CARBOXYLATE]
2. CCOC(=O)C1=C[C@@H](OC(CC)CC)[C@H](NC(C)=O)[C@@H](N)C1
Input line: From the recorded data, which exceeds the other in half-life: 1 or 2 ? Output the label that corresponds to your choice.
Output line: 2
(2: 2.45 h, 1: 0.379 h)

---

Test: Cmax in perfused Sprague-Dawley rat cerebrospinal fluid at 1000 mg/kg, po
Format: ADME, organism-based
Design: dose 1000 mg/kg, route oral
Endpoint Name: Cmax (ng/mL)

A. CCOC(=O)C1=C[C@@H](OC(CC)CC)[C@H](NC(C)=O)[C@@H](N)C1 [OSELTAMIVIR]
B. CCC(CC)O[C@@H]1C=C(C(=O)O)C[C@H](N)[C@H]1NC(C)=O [OSELTAMIVIR CARBOXYLATE]
Input line: // select label with min value of measured Cmax from [ A , B ] Output the label that corresponds to your choice.
Output line: B

---

Test: Ratio of drug level in brain to plasma in non-perfused Sprague-Dawley rat at 30 mg/kg, iv
Assay type: ADME, organism-based
Parameters: dose 30 mg/kg, route intravenous
Condition Label: brain and plasma, read-out: BPR
Endpoint Name: Kp
Write the number on its own, no unit after it.

Input line: Could you tell me which Kp is on file for CCC(CC)O[C@@H]1C=C(C(=O)O)C[C@H](N)[C@H]1NC(C)=O [OSELTAMIVIR CARBOXYLATE] ?
Output line: 0.02

---

Test: Prodrug conversion in commercial brain S9 fractions assessed as oseltamivir carboxylate generation rate assessed per mg of protein per min
Assay type: ADME
Endpoint Name: Activity (pmol/min/mg)
Give a bare numeral; the unit pmol/min/mg is implied.

Input line: Could you tell me which Activity is on file for CCOC(=O)C1=C[C@@H](OC(CC)CC)[C@H](NC(C)=O)[C@@H](N)C1 ?
Output line: 0.32

---

Target Desc: ATP-dependent translocase ABCB1 (Homo sapiens, UniProt P08183)
Sequence (P08183 whole entry): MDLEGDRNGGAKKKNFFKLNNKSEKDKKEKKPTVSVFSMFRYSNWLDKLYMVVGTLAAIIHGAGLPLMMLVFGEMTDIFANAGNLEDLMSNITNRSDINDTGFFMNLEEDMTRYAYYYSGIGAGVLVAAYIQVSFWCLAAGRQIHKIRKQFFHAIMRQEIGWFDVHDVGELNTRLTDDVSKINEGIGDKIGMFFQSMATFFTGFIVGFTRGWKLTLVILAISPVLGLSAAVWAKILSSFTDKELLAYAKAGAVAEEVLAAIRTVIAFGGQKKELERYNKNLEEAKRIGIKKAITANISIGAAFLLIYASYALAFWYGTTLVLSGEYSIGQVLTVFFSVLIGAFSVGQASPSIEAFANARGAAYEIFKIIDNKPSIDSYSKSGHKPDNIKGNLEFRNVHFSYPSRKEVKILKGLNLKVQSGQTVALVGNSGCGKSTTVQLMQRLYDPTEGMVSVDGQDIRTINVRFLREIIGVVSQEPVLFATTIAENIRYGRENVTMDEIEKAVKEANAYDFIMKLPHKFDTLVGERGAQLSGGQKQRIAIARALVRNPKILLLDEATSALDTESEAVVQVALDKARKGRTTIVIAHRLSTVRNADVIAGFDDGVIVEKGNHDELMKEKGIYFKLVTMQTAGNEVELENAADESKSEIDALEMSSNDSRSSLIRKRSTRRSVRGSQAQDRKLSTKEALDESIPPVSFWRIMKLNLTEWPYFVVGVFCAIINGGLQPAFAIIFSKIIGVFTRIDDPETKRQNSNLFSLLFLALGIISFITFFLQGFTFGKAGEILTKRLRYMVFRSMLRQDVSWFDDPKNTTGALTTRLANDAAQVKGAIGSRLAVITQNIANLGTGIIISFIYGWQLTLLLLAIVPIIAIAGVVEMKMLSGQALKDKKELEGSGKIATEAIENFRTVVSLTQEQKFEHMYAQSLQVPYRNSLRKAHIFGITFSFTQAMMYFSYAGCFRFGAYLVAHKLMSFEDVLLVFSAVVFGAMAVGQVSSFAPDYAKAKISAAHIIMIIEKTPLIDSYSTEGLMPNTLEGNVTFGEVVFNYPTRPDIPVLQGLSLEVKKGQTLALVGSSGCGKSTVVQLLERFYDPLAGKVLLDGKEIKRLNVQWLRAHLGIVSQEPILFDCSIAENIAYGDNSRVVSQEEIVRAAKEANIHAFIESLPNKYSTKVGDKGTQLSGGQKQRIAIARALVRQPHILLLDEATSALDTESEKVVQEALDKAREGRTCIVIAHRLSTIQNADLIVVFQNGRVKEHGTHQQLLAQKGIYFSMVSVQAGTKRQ
Test: Inhibition of human MDR1-mediated digoxin permeability expressed in pig LLC-PK1 cells
Type: cell-based
Endpoint Name: pIC50
Formally, pIC50 is defined as -log10 of the concentration c, with c in mol/L.

Input line: Could you tell me which pIC50 is on file for CCOC(=O)C1=C[C@@H](OC(CC)CC)[C@H](NC(C)=O)[C@@H](N)C1 ?
Output line: 2.89

---

Test: Cmax in perfused Sprague-Dawley rat brain at 30 mg/kg, iv
Format: ADME, organism-based
Set-up: dose 30 mg/kg, route intravenous
Endpoint Name: Cmax (ng/g)

>>> experimental_value("CCC(CC)O[C@@H]1C=C(C(=O)O)C[C@H](N)[C@H]1NC(C)=O [OSELTAMIVIR CARBOXYLATE]")
605
>>> experimental_value("CCOC(=O)C1=C[C@@H](OC(CC)CC)[C@H](NC(C)=O)[C@@H](N)C1")
491

---

Test: AUC (0 to infinity) ratio in brain to plasma in non-perfused Sprague-Dawley rat at 30 mg/kg, iv
Assay type: ADME, organism-based
Parameters: dose 30 mg/kg, route intravenous
Condition Label: brain and plasma, read-out: Ratio AUC
Endpoint Name: Kp
Write the number on its own, no unit after it.

Input line: Could you tell me which Kp is on file for CCOC(=O)C1=C[C@@H](OC(CC)CC)[C@H](NC(C)=O)[C@@H](N)C1 ?
Output line: 0.24

---

Test: Terminal half life in perfused Sprague-Dawley rat cerebrospinal fluid at 30 mg/kg, iv
Format: ADME, organism-based
Parameters: dose 30 mg/kg, route intravenous
Condition Label: read-out: beta t1/2 (converted)
Endpoint Name: half-life (min)

I. CCC(CC)O[C@@H]1C=C(C(=O)O)C[C@H](N)[C@H]1NC(C)=O [OSELTAMIVIR CARBOXYLATE]
II. CCOC(=O)C1=C[C@@H](OC(CC)CC)[C@H](NC(C)=O)[C@@H](N)C1
Input line: From the recorded data, which exceeds the other in half-life: I or II ? Output the label that corresponds to your choice.
Output line: II

---

Test: AUC (0 to 8 hrs) ratio in brain to plasma in perfused Sprague-Dawley rat at 1000 mg/kg, po
Type: ADME, organism-based
Parameters: dose 1000 mg/kg, route oral
Condition Label: brain and plasma, read-out: Ratio AUC
Endpoint Name: Kp

A. CCOC(=O)C1=C[C@@H](OC(CC)CC)[C@H](NC(C)=O)[C@@H](N)C1
B. CCC(CC)O[C@@H]1C=C(C(=O)O)C[C@H](N)[C@H]1NC(C)=O [OSELTAMIVIR CARBOXYLATE]
Input line: From the recorded data, which exceeds the other in Kp: A or B ? Output the label that corresponds to your choice.
Output line: A

---

Test: Terminal half life in non-perfused Sprague-Dawley rat plasma at 30 mg/kg, iv
Format: ADME, organism-based
Set-up: dose 30 mg/kg, route intravenous
Condition Label: read-out: beta t1/2 (converted)
Endpoint Name: half-life (h)

>>> experimental_value("CCOC(=O)C1=C[C@@H](OC(CC)CC)[C@H](NC(C)=O)[C@@H](N)C1")
1.35
>>> experimental_value("CCC(CC)O[C@@H]1C=C(C(=O)O)C[C@H](N)[C@H]1NC(C)=O [OSELTAMIVIR CARBOXYLATE]")
1.64
